Provide the reported IC50 of each item.
Molecular target: TLR7 (Homo sapiens)
Sequence (Q9NYK1 27-1049): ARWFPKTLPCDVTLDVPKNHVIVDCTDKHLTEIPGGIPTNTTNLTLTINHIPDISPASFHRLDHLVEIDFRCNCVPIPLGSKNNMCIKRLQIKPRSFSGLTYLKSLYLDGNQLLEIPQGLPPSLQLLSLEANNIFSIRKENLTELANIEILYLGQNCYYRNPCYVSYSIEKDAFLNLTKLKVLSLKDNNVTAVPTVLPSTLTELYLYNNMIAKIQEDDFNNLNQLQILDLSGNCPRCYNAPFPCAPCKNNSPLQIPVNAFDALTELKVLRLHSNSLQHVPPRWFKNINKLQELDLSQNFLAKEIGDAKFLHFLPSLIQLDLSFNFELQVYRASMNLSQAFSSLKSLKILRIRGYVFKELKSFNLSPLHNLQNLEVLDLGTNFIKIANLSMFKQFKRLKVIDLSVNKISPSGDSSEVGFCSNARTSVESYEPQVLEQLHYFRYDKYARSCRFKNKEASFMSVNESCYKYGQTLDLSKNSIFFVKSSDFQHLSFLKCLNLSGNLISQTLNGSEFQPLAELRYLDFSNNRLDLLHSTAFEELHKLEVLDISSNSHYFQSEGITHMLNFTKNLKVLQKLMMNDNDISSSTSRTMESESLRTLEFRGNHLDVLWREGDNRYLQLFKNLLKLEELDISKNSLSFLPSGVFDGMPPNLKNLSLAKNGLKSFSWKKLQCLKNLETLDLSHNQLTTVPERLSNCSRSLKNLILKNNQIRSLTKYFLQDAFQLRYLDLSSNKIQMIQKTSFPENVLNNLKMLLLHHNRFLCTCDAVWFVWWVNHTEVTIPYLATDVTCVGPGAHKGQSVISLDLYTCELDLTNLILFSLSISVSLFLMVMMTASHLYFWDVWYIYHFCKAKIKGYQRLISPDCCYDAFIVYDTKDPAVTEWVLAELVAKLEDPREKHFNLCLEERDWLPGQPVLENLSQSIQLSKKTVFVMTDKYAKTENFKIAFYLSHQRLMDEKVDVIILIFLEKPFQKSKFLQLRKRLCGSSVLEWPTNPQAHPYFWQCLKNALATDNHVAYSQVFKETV
Assay: HEK Cell Assay (TLR7/NFKb HEK reporter cells, Steady-Glo)
Conditions: compound 30 min, then R*48 agonist 5 hours, Steady-Glo readout, read-out: Potency

Requested read-out: IC50. Entry: CC(C)N1CCC(CC(=O)N2C[C@H](C)C[C@H](c3ccc(C#N)c4ncccc34)C2)CC1 [Compound 46] < 1 µM

Requested read-out: IC50. Entry: C[C@@H]1C[C@H](c2ccc(C#N)c3ncccc23)CN(C(=O)c2cnn(C)c2)C1 (relative stereo) 1 to 20 µM

Requested read-out: IC50. Entry: C[C@@H]1C[C@H](c2ccc(C#N)c3ncccc23)CN(CC(N)=O)C1 (relative stereo) > 20 µM

Requested read-out: IC50. Entry: CC1CC(c2ccc(C#N)c3ncccc23)CN(C(=O)NC2CCN(C)CC2)C1 (stereo not drawn) < 1 µM

Requested read-out: IC50. Entry: C[C@@H]1C[C@H](c2ccc(C#N)c3ncccc23)CN(C(=O)C2(N)CC2)C1 > 20 µM

Requested read-out: IC50. Entry: C[C@@H]1C[C@H](c2ccc(OC(F)(F)F)c3ncccc23)CN(C(=O)CC2CCN(C)CC2)C1 1 to 20 µM

Requested read-out: IC50. Entry: C[C@@H]1C[C@H](c2ccc(C#N)c3ncccc23)CN(C(=O)c2ccc(N3CCC3)nc2)C1 (relative stereo) > 20 µM

Requested read-out: IC50. Entry: C[C@@H]1C[C@H](c2ccc(C(F)(F)F)c3ncccc23)CN(C(=O)CC2CCN(C)CC2)C1 (racemic) [Compound 4] < 1 µM

Requested read-out: IC50. Entry: C[C@@H]1C[C@H](c2ccc(C#N)c3ncccc23)CN(C(=O)CN2CC3CCC2CN3)C1 (mixture of isomers) < 1 µM

Requested read-out: IC50. Entry: CC1CC(c2ccc(C(F)(F)F)c3ncccc23)CN(c2ccon2)C1 (stereo not drawn) > 20 µM

Requested read-out: IC50. Entry: C[C@H]1C[C@@H](NC(=O)CC(C)(C)C)C[C@H](c2ccc(C#N)c3nccnc23)C1 (racemic) 1 to 20 µM

Requested read-out: IC50. Entry: CC1CC(c2ccc(C#N)c3ncccc23)CN(CCC(N)=O)C1 (stereo not drawn) > 20 µM

Requested read-out: IC50. Entry: C[C@@H]1C[C@H](c2ccc(C#N)c3ncccc23)CN(C(=O)CCc2cccnc2)C1 (relative stereo) > 20 µM

Requested read-out: IC50. Entry: CNC(=O)CCN1CC(C)CC(c2ccc(C#N)c3ncccc23)C1 (stereo not drawn) > 20 µM

Requested read-out: IC50. Entry: C[C@@H]1C[C@@H](c2cccc3ncccc23)CN(C(=O)NC2CCN(C)CC2)C1 1 to 20 µM

# credit: patent US11512069B2
